molecular target: CDK4/CyclinD1 (Homo sapiens, UniProt P11802); experiment: CDK4/CyclinD1 Flashplate assay, 96-well format, biotinylated-Rb peptide substrate; type: biochemical
Sequence (P11802 whole entry, species assumed): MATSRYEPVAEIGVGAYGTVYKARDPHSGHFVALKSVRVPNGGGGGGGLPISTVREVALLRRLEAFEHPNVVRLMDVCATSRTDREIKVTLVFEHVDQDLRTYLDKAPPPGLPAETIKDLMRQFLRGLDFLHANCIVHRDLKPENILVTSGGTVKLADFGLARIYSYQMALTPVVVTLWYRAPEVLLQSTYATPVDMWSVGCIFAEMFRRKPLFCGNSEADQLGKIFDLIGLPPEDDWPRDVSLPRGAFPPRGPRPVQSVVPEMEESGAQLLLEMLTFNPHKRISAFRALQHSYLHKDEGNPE
Sequence (P24385 whole entry partner, species assumed): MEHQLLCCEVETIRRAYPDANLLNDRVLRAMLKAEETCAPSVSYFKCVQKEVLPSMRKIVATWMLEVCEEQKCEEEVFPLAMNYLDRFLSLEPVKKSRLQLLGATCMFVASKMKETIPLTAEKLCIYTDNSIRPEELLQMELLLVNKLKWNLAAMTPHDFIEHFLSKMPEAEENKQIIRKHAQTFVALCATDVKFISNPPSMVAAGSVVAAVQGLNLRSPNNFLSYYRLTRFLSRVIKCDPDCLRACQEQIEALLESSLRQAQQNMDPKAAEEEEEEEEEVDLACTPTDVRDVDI
assay-metric: inhibition at 10 µM (%)

compound	assay-metric	recorded-result
O=C(Nc1ccc(F)cc1)Nc1nc2cc(OS(=O)(=O)c3ccc(NC4CCCC4)cc3)ccc2[nH]1 [Example 58-f]	inhibition at 10 µM	91
O=C(NCc1ccccc1Cl)Nc1nc2cc(OS(=O)(=O)c3ccc(NC4CCCC4)cc3)ccc2[nH]1 [Example 58-g]	inhibition at 10 µM	69
COCCNc1ccc(S(=O)(=O)Oc2ccc3[nH]c(NC(=O)OC)nc3c2)cc1 [Example 68-a]	inhibition at 10 µM	97

###

biological target: CDK2/CyclinE (Homo sapiens, UniProt P24941); experiment: CDK2/CyclinE Flashplate assay, 96-well format, biotinylated-Rb peptide substrate
pIC50: −log10 of the molar value.
assay-metric: pIC50

a = COc1cccc(NC(=O)Nc2nc3cc(OS(=O)(=O)c4ccc(NC5CCCC5)cc4)ccc3[nH]2)c1
b = O=C(NCCS(=O)(=O)O)Nc1nc2cc(OS(=O)(=O)c3ccc(NCC4CCCO4)cc3)ccc2[nH]1 (stereo not shown)
c = O=C(Nc1nc2cc(OS(=O)(=O)c3ccc(NC4CCCC4)cc3)ccc2[nH]1)NC1CC1
d = CN(C)C(=O)Nc1nc2cc(OS(=O)(=O)c3ccc(NC4CCCC4)cc3)ccc2[nH]1
Hi! Can you put these in order of pIC50, lowest number first? Answer by writing out the labels in the requested order.
a, d, c, b
(a: 5.37, d: 5.96, c: 7.22, b: 7.44)

###

biological target: CDK4/CyclinD1 (Homo sapiens); assay: CDK4/CyclinD1 Flashplate assay, 96-well format, biotinylated-Rb peptide substrate; type: biochemical
assay-metric: inhibition at 10 µM (%)

a = O=C(NCCN1CCOCC1)Nc1nc2ccc(OS(=O)(=O)c3ccc(NCc4ccccn4)cc3)cc2[nH]1
b = O=C(Nc1nc2cc(OS(=O)(=O)c3ccc(-n4ccnc4)cc3)ccc2[nH]1)N1CCC1
c = CN1CCN(CCCNC(=O)Nc2nc3cc(OS(=O)(=O)c4ccc(-n5ccnc5)cc4)ccc3[nH]2)CC1
d = CCCCNc1ccc(S(=O)(=O)Oc2ccc3[nH]c(NC(=O)OC)nc3c2)cc1
Hi! Can you put these in order of inhibition at 10 µM, lowest number first? Answer by writing out the labels in the requested order.
d, b, c, a

###

target: CDK4/CyclinD1 (Homo sapiens); assay: CDK4/CyclinD1 Flashplate assay, 96-well format, biotinylated-Rb peptide substrate
assay-metric: IC50 (nM)

Reference set (2 entries):
compound	IC50 [nM]
CCCCNC(=O)Nc1nc2cc(OS(=O)(=O)c3ccc(NC4CCCC4)cc3)ccc2[nH]1 [Example 35]	1100
O=C(NCCCO)Nc1nc2cc(OS(=O)(=O)c3ccc(NCC4CCCO4)cc3)ccc2[nH]1 (stereo not shown) [Example 59-c]	1000

I = COCC(=O)Nc1nc2cc(OS(=O)(=O)c3ccc(NC4CCCC4)cc3)ccc2[nH]1 [Example 28]
II = O=C(NCCNCCO)Nc1nc2cc(OS(=O)(=O)c3ccc(NC4CCCC4)cc3)ccc2[nH]1 [Example 58-aa]
Kindly compare I with II and tell me which has the lower IC50 figure. Mark your selection by writing its label.
II
(II: 340 nM, I: 1030 nM)
